target: human orexin-2 receptor (Homo sapiens (Human), UniProt O43614); test: In vitro assay: intracellular calcium measurements (FLIPR), antagonistic activity; conditions: CHO cells expressing human orexin-2 receptor, orexin-A agonist, geometric mean, read-out: IC50 Ox2
Sequence (O43614 whole entry): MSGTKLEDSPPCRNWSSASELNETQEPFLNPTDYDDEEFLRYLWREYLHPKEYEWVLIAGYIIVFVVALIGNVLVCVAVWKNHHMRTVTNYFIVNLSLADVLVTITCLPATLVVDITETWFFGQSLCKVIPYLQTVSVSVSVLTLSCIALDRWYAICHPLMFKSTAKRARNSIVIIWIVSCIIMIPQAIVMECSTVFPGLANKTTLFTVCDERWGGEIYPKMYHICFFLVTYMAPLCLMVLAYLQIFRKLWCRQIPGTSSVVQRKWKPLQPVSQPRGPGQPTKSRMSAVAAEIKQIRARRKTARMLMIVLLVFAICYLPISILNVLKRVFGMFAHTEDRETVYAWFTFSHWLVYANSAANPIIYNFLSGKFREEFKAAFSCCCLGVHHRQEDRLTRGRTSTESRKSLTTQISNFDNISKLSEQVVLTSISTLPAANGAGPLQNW
readout_label: IC50 (nM)
Give bare numbers, in nM.

Some solved entries appear below for comparison.
Cc1cc2[nH]c([C@@H]3[C@@H](C)CCN3C(=O)c3cc(C(F)(F)F)ccc3-c3ccccc3)nc2cc1Cl [Ex. 4.114]
1360
CCc1ccc(-c2sc(C)nc2C(=O)N2CCC[C@H]2c2nc3cccc(SC)c3[nH]2)cc1 [Ex. 1.69]
31
Cc1nc(C(=O)N2CCC[C@@]2(C)c2nc3c(C)c(Cl)ccc3n2C)c(-c2ccccc2)s1 [Ex. 7.7]
3
Cc1nc(C(=O)N2CCCC2c2nc3cc(Br)ccc3[nH]2)c(-c2cccc(Cl)c2)s1 (centres unmarked) [Ex. 1.93]
458
C=C1CN(C(=O)c2cc(Cl)ccc2-n2nccn2)C(C)(c2nc3cc(OC)ccc3[nH]2)C1 (centres unmarked) [Ex. 6.157]
21

Could you report IC50 for every entry in the following list?
1. Cc1nc(C(=O)N2CC[C@H](C)[C@H]2c2nc3cccc(C)c3[nH]2)c(-c2ccccc2)s1 [Ex. 4.4]
2. Cc1ccc(-c2sccc2C(=O)N2CC[C@H](C)[C@H]2c2nc3cc(C(F)(F)F)ccc3[nH]2)cc1C [Ex. 4.144]

[1170, 463]

Could you report IC50 for every entry in the following list?
1. COc1cccc2[nH]c([C@@H]3[C@@H](C)CCN3C(=O)c3nc(C)sc3-c3cccc(Cl)c3)nc12 [Ex. 4.14]
2. COc1ccc2nc([C@@H]3CCCN3C(=O)c3cnc(C)nc3-c3cccc(Cl)c3)[nH]c2c1 [Ex. 1.29]
3. CCn1c([C@]2(C)CCCN2C(=O)c2nc(C)sc2-c2ccccc2)nc2c(C)c(Cl)ccc21 [Ex. 7.8]
4. COc1ccc(-n2nccn2)c(C(=O)N2CCC[C@@]2(C)c2nc3cc(C)c(C)cc3[nH]2)c1 [Ex. 5.54]

[4030, 182, 4, 20]
